- target: plasma purified human complement protein C3 (human) (UniProt P01024)
- Sequence (P01024 23-667, chain 1 of 2): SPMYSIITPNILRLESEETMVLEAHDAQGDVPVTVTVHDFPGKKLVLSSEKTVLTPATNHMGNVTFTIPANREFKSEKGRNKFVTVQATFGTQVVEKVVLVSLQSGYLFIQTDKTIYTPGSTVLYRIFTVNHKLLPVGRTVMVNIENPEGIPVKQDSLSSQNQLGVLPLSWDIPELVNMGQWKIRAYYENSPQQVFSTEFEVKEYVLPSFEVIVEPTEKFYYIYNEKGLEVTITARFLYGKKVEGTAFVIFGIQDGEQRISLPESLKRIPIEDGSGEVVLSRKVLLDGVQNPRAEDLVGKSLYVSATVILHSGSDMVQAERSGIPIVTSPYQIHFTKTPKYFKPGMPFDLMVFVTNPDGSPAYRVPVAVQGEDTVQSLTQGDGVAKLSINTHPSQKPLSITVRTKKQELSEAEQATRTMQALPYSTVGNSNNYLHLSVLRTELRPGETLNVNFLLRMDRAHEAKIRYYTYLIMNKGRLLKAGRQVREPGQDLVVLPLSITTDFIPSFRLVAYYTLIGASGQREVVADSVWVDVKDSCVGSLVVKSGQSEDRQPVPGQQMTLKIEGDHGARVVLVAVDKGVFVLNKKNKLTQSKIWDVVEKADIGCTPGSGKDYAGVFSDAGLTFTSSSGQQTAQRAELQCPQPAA
- Sequence (P01024 672-1663, chain 2 of 2): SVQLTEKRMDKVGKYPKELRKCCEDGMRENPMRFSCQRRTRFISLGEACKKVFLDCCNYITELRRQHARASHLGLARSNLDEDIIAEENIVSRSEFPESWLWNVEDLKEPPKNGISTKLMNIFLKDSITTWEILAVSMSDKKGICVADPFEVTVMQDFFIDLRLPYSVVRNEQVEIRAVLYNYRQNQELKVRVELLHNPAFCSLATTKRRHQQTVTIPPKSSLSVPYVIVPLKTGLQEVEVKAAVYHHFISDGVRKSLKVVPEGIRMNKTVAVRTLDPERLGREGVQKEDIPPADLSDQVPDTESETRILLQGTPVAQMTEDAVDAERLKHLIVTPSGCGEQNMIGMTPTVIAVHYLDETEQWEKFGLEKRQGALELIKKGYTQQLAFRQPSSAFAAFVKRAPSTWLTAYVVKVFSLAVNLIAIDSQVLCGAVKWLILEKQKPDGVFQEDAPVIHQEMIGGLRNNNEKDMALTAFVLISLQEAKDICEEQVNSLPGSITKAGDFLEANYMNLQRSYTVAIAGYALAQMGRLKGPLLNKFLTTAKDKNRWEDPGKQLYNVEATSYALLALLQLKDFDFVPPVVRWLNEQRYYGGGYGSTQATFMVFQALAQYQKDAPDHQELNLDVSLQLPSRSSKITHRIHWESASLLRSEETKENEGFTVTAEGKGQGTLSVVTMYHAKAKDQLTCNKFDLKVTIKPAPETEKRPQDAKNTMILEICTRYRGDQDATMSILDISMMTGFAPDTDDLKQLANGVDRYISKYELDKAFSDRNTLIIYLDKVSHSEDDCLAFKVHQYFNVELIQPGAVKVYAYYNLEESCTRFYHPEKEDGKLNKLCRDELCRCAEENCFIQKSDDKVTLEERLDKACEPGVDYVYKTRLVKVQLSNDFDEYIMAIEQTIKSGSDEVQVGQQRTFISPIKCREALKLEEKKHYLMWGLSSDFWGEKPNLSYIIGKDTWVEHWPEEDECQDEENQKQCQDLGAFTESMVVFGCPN
- protocol_summary: cell-based or functional assay
Listing: EC50 hC3 cleavage of selected binders
Kindly answer with a numeric value in nM, unit omitted.

The following binders have reported results that may help.
Query string: Data request, read-out EC50 hC3 cleavage, for MTSP-1 protease domain I41S/F97G/ins97aA/T98P/C122S/Q192A (enzyme) VVGGTDADEGEWPWQVSLHALGQGHSCGASLISPNWLVSAAHCYIDDRGFRYSDPTQWTAFLGLHDQSQRSAPGVQERRLKRIISHPFFNDGAPFDYDIALLELEKPAEYSSMVRPISLPDASHVFPAGKAIWVTGWGHTQYGGTGALILQKGEIRVINQTTCENLLPQQITPRMMCVGFLSGGVDSCAGDSGGPLSSVEADGRIFQAGVVSWGDGCAQRNKPGVYTRLPLFRDWIKENTGV
Result string: 57.2

Query string: Data request, read-out EC50 hC3 cleavage, for MTSP-1 protease domain I41S/F97Q/F99L/C122S/Q192S (enzyme) VVGGTDADEGEWPWQVSLHALGQGHSCGASLISPNWLVSAAHCYIDDRGFRYSDPTQWTAFLGLHDQSQRSAPGVQERRLKRIISHPFFNDQTLDYDIALLELEKPAEYSSMVRPISLPDASHVFPAGKAIWVTGWGHTQYGGTGALILQKGEIRVINQTTCENLLPQQITPRMMCVGFLSGGVDSCSGDSGGPLSSVEADGRIFQAGVVSWGDGCAQRNKPGVYTRLPLFRDWIKENTGV
Result string: 53.5

API: the following record is the query input.
Query string: Data request, read-out EC50 hC3 cleavage, for MTSP-1 protease domain Q38H/I41S/D60bT/F60eK/Y60gF/D96M/F97N/T98G/F99L/C122S/G151N/Q175L/Q192D (enzyme) VVGGTDADEGEWPWQVSLHALGHGHSCGASLISPNWLVSAAHCYIDTRGKRFSDPTQWTAFLGLHDQSQRSAPGVQERRLKRIISHPFFNMNGLDYDIALLELEKPAEYSSMVRPISLPDASHVFPAGKAIWVTGWGHTQYGGTNALILQKGEIRVINQTTCENLLPQLITPRMMCVGFLSGGVDSCDGDSGGPLSSVEADGRIFQAGVVSWGDGCAQRNKPGVYTRLPLFRDWIKENTGV
Result string: 20.6
